Target: LRRK2 (Homo sapiens, UniProt Q5S007, G2019S)
Construct: purchased Invitrogen PV4882 (lot 567054A)
Sequence (Q5S007 whole entry G2019S): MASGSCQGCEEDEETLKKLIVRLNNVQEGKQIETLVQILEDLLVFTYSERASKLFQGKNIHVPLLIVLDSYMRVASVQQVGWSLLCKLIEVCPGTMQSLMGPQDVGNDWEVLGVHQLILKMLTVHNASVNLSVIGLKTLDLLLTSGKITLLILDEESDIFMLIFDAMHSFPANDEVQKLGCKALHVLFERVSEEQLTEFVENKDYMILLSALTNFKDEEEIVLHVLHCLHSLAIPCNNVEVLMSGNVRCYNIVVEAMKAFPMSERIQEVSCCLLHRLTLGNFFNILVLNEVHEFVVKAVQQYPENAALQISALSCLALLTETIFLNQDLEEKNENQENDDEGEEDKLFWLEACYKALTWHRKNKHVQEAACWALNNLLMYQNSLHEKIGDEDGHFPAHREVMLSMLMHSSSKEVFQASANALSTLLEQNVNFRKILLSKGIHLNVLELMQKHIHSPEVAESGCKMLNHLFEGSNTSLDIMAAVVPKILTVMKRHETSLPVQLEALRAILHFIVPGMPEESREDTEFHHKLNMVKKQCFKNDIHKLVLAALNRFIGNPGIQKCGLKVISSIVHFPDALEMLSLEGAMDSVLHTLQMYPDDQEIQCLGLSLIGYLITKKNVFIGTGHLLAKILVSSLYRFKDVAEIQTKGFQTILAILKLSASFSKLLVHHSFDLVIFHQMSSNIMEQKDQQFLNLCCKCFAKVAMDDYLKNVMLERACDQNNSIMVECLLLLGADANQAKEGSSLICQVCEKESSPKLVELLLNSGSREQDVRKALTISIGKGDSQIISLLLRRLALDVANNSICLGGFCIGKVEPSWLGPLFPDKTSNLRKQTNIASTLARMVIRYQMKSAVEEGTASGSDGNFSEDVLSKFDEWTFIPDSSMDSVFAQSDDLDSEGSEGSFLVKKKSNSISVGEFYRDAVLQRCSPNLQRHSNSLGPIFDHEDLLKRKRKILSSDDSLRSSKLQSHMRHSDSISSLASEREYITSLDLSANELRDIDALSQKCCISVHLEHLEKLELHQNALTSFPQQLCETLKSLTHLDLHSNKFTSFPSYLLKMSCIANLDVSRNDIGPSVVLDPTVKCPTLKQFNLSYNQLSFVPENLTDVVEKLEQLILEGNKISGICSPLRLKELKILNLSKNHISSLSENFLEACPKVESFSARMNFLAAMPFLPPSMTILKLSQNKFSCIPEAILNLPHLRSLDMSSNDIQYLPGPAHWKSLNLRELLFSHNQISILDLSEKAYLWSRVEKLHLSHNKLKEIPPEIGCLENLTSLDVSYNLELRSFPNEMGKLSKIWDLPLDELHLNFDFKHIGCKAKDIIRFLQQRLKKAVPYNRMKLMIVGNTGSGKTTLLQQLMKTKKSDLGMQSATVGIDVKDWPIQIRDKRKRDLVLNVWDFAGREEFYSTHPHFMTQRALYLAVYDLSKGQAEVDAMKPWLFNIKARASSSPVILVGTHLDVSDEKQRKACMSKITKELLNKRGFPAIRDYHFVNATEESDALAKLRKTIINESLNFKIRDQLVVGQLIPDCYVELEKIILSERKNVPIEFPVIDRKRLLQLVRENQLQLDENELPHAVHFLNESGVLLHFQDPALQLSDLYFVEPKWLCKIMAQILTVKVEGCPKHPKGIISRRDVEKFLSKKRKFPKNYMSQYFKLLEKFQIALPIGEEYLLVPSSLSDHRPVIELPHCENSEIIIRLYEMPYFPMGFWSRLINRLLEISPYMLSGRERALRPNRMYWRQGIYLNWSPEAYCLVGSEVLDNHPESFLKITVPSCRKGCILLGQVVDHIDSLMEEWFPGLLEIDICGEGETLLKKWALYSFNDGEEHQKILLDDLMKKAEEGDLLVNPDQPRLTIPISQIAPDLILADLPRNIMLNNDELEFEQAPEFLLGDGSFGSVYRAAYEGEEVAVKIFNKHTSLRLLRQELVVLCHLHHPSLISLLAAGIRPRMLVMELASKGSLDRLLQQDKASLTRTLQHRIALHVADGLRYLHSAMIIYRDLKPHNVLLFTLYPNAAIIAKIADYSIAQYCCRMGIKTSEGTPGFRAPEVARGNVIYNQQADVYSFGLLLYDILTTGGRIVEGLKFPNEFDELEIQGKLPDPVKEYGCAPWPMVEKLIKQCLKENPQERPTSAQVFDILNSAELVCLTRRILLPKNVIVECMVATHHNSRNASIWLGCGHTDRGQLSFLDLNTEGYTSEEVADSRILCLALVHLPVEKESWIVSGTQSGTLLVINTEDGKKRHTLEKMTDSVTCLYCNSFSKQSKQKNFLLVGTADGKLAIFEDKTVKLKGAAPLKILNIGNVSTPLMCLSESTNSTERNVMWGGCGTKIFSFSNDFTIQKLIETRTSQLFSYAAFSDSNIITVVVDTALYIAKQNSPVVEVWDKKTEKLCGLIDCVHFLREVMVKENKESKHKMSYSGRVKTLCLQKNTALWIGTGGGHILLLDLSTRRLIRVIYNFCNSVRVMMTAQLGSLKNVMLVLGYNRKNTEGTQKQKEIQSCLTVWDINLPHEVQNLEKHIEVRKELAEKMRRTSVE
Experiment: In Vitro LRRK2 Assay (LabChip 3000, fluorescently-labeled peptide substrate, ATP)
Format: biochemical
Details: read-out: LRRK2 Ki (KI), Table 7
pKi: −log10 of the molar value.

mol	pKi
COc1nc(Nc2cnn(-c3ccccc3)c2C)ncc1C(F)(F)F	7.42
COc1nc(Nc2cc(C(C)C)nn2C)ncc1Cl	7.15
COc1nc(Nc2cnn(S(=O)(=O)C3CC3)c2C)ncc1Cl	7.82
CCn1cc(Nc2ncc(Cl)c(OC)n2)c(C)n1	7.89
CNc1nc(Nc2cc(C(C)C)nn2C)ncc1C(F)(F)F	7.92

----------
Target: LRRK2 (Homo sapiens, UniProt Q5S007, G2019S)
Construct: purchased Invitrogen PV4882 (lot 567054A)
Assay: In Vitro LRRK2 Assay (LabChip 3000, fluorescently-labeled peptide substrate, ATP)
Assay type: biochemical
Conditions: read-out: LRRK2 Ki (KI), Table 8

mol	Ki / nM
CCNc1nc(Nc2cn(C(C)(C)CN3CCOCC3)nc2C)ncc1C(F)(F)F	50.6
CNc1nc(Nc2cnn(CC(C)(C)C#N)c2Cl)ncc1C(F)(F)F	1.7
CNc1nc(Nc2cn([C@H](C)COC)nc2C)ncc1C(F)(F)F	12.8
CNc1nc(Nc2cnn(CC(C)(C)N3CCOCC3)c2C)ncc1C(F)(F)F	7.7
CNc1nc(Nc2cn(Cc3ncccn3)nc2C)ncc1C(F)(F)F	5.1

----------
Target: LRRK2 (Homo sapiens, UniProt Q5S007, G2019S)
Construct: purchased Invitrogen PV4882 (lot 567054A)
Test: In Vitro LRRK2 Assay (LabChip 3000, fluorescently-labeled peptide substrate, ATP)
Format: biochemical
Conditions: Table 10; LRRK2 Ki (micromolar); read-out: LRRK2 Ki (KI)
Criterion: Ki strictly under 6 nM. Met: TRUE. Not met: FALSE.

mol	targetOrTestSystem	class
CCNC(=O)C1(n2ncc(Nc3ncc(C(F)(F)F)c(NC)n3)c2C)CCC1	LRRK2 (Homo sapiens, UniProt Q5S007, G2019S)	FALSE
CNc1nc(Nc2cnn([C@H](C)C(=O)N(C)C)c2C)ncc1C(F)(F)F	LRRK2 (Homo sapiens, UniProt Q5S007, G2019S)	FALSE
CNc1nc(Nc2cn([C@@H](C)C#N)nc2C)ncc1C(F)(F)F	LRRK2 (Homo sapiens, UniProt Q5S007, G2019S)	TRUE
COC(=O)C(C)(C)n1cc(Nc2ncc(Cl)c(OC)n2)c(C)n1	LRRK2 (Homo sapiens, UniProt Q5S007, G2019S)	FALSE
CNc1nc(Nc2cnn(C(C)(C)C(=O)N(C)C)c2C)ncc1C(F)(F)F	LRRK2 (Homo sapiens, UniProt Q5S007, G2019S)	FALSE
CNc1nc(Nc2cn(C(C)(C)C(=O)OC)nc2C)ncc1C(F)(F)F	LRRK2 (Homo sapiens, UniProt Q5S007, G2019S)	TRUE
CNc1nc(Nc2cn([C@H](C)C(=O)N(C)C)nc2C)ncc1C(F)(F)F	LRRK2 (Homo sapiens, UniProt Q5S007, G2019S)	FALSE
CNc1nc(Nc2cn(C(C)(C)C(=O)NCC(F)(F)F)nc2C)ncc1C(F)(F)F	LRRK2 (Homo sapiens, UniProt Q5S007, G2019S)	FALSE
CCNc1nc(Nc2cn(C(C)(C)C(=O)NC)nc2C)ncc1C(F)(F)F	LRRK2 (Homo sapiens, UniProt Q5S007, G2019S)	FALSE
CNc1nc(Nc2cnn(C(C)(C)C#N)c2C)ncc1C(F)(F)F	LRRK2 (Homo sapiens, UniProt Q5S007, G2019S)	TRUE
CNc1nc(Nc2cnn([C@@H](C)C(=O)N3CCCC3)c2C)ncc1C(F)(F)F	LRRK2 (Homo sapiens, UniProt Q5S007, G2019S)	FALSE
CNc1nc(Nc2cnn(C3(C#N)CC3)c2Cl)ncc1C(F)(F)F	LRRK2 (Homo sapiens, UniProt Q5S007, G2019S)	TRUE
CNc1nc(Nc2cnn(C(C)(C)C(=O)NCC(F)(F)F)c2C)ncc1C(F)(F)F	LRRK2 (Homo sapiens, UniProt Q5S007, G2019S)	FALSE
CNc1nc(Nc2cn(CC(=O)N(C)C)nc2C)ncc1C(F)(F)F	LRRK2 (Homo sapiens, UniProt Q5S007, G2019S)	TRUE
CNc1nc(Nc2cnn([C@H](C)C(=O)N3CCCC3)c2C)ncc1C(F)(F)F	LRRK2 (Homo sapiens, UniProt Q5S007, G2019S)	FALSE
CNc1nc(Nc2cn(C(C)(C)C(=O)NC(C)(C)C)nc2C)ncc1C(F)(F)F	LRRK2 (Homo sapiens, UniProt Q5S007, G2019S)	FALSE
CNc1nc(Nc2cnn(CC(=O)N(C)C)c2C)ncc1C(F)(F)F	LRRK2 (Homo sapiens, UniProt Q5S007, G2019S)	FALSE
CNc1nc(Nc2cnn(C(C)(C)C#N)c2Cl)ncc1C(F)(F)F	LRRK2 (Homo sapiens, UniProt Q5S007, G2019S)	TRUE

----------
Target: LRRK2 (Homo sapiens, UniProt Q5S007, G2019S)
Construct: purchased Invitrogen PV4882 (lot 567054A)
Experiment: In Vitro LRRK2 Assay (LabChip 3000, fluorescently-labeled peptide substrate, ATP)
Assay type: biochemical
Conditions: Table 9; LRRK2 Ki (micromolar); read-out: LRRK2 Ki (KI)
pKi: −log10 of the molar value.
In this section we review reported pKi values for a set of molecules.

molecule	pKi
CNc1nc(Nc2cnn(C3CCN(CC(F)(F)F)CC3)c2C)ncc1C#N [Example 356]	7.65
CCNc1nc(Nc2cn(C3COC3)nc2C)ncc1C#N [Example 373]	7.64
CNc1nc(Nc2cn(C3CCN(CC(F)(F)F)CC3)nc2C)ncc1C#N [Example 355]	6.52
CNc1nc(Nc2cnn(CC(F)(F)F)c2C)ncc1C#N [Example 358]	7.49
CNc1nc(Nc2cnn(C3CCOCC3)c2C)ncc1C#N [Example 361]	8.06

----------
In this section we review reported pKi values for a set of molecules.
Molecular target: LRRK2 (Homo sapiens, UniProt Q5S007, G2019S)
Construct: purchased Invitrogen PV4882 (lot 567054A)
Assay: In Vitro LRRK2 Assay (LabChip 3000, fluorescently-labeled peptide substrate, ATP)
Type: biochemical
Settings: Table 10; LRRK2 Ki (micromolar); read-out: LRRK2 Ki (KI)
pKi: −log10 of the molar value.

mol	targetOrTestSystem	pKi
CNC(=O)C(C)(C)n1ncc(Nc2ncc(C(F)(F)F)c(NC3CC3)n2)c1C	LRRK2 (Homo sapiens, UniProt Q5S007, G2019S)	8.15
CNc1nc(Nc2cnn(C(C)(C)C(=O)OC)c2C)ncc1C(F)(F)F	LRRK2 (Homo sapiens, UniProt Q5S007, G2019S)	8.12
CNc1nc(Nc2cn([C@H](C)C(=O)N3CCCC3)nc2C)ncc1C(F)(F)F	LRRK2 (Homo sapiens, UniProt Q5S007, G2019S)	7.80

----------
In this section we review reported Ki values for a set of compounds.
Molecular target: LRRK2 (Homo sapiens, UniProt Q5S007, G2019S)
Construct: purchased Invitrogen PV4882 (lot 567054A)
Experiment: In Vitro LRRK2 Assay (LabChip 3000, fluorescently-labeled peptide substrate, ATP)
Format: biochemical
Conditions: read-out: LRRK2 Ki (KI), Table 8

compound	measurementUnit	Ki
CNc1nc(Nc2cn(-c3ccc(S(=O)(=O)C4CC4)cc3)nc2C)ncc1C(F)(F)F	nM	0.3
CNc1nc(Nc2cn(-c3ccccc3)nc2C)ncc1Br	nM	8.4
CCNc1nc(Nc2cnn(S(=O)(=O)C(C)C)c2C)ncc1C(F)(F)F	nM	4.7
CNc1nc(Nc2cnn(C)c2N(C)C)ncc1C(F)(F)F	nM	77.9
CNc1nc(Nc2cnn([C@H](C)COC)c2C)ncc1C(F)(F)F [Example 274]	nM	18.5
CCNc1nc(Nc2cn(C3COC3)nc2C)ncc1Cl	nM	3.1
CCNc1nc(Nc2cnn(S(=O)(=O)CC)c2C)ncc1C(F)(F)F	nM	4.7
CCNc1nc(Nc2cnn(CC)c2C)ncc1Br	nM	0.43
CCCn1cc(Nc2ncc(C(F)(F)F)c(NC)n2)c(C)n1	nM	0.6

----------
Target: LRRK2 (Homo sapiens, UniProt Q5S007, G2019S)
Construct: purchased Invitrogen PV4882 (lot 567054A)
Assay: In Vitro LRRK2 Assay (LabChip 3000, fluorescently-labeled peptide substrate, ATP)
Assay type: biochemical
Conditions: read-out: LRRK2 Ki (KI), Table 8

compound	targetOrTestSystem	Ki
CCNc1nc(Nc2cnn(CC3(C)COC3)c2C)ncc1C(F)(F)F	LRRK2 (Homo sapiens, UniProt Q5S007, G2019S)	2.2 nM
CNc1nc(Nc2cnn(C(C)C)c2Cl)ncc1C(F)(F)F	LRRK2 (Homo sapiens, UniProt Q5S007, G2019S)	1.1 nM
CNc1nc(Nc2cnn(C3CC(C)OC(C)C3)c2C)ncc1C(F)(F)F (centres unmarked)	LRRK2 (Homo sapiens, UniProt Q5S007, G2019S)	5.1 nM
CCNc1nc(Nc2cnn(C3CCC(=O)N(C)C3)c2C)ncc1C(F)(F)F (centres unmarked)	LRRK2 (Homo sapiens, UniProt Q5S007, G2019S)	1.1 nM
CCNc1nc(Nc2ccn(CC)n2)ncc1C(F)(F)F	LRRK2 (Homo sapiens, UniProt Q5S007, G2019S)	1.9 nM
CNc1nc(Nc2cn(CC(F)(F)F)nc2C)ncc1C(F)(F)F	LRRK2 (Homo sapiens, UniProt Q5S007, G2019S)	7.7 nM
CCn1ncc(Nc2ncc(C(F)(F)F)c(NC)n2)c1Cl	LRRK2 (Homo sapiens, UniProt Q5S007, G2019S)	2 nM
CNc1nc(Nc2cn(C[C@H](C)OC)nc2C)ncc1C(F)(F)F	LRRK2 (Homo sapiens, UniProt Q5S007, G2019S)	11.8 nM
CNc1nc(Nc2cnn(CC3CC3)c2Cl)ncc1C(F)(F)F	LRRK2 (Homo sapiens, UniProt Q5S007, G2019S)	0.3 nM
CNc1nc(Nc2cn(-c3cc(F)cc(F)c3)nc2C)ncc1Br	LRRK2 (Homo sapiens, UniProt Q5S007, G2019S)	0.3 nM
CCNc1nc(Nc2cnn(C3CCN(CCOC)CC3)c2C)ncc1C(F)(F)F	LRRK2 (Homo sapiens, UniProt Q5S007, G2019S)	2 nM
CNc1nc(Nc2cn(-c3ccncc3C)nc2C)ncc1C(F)(F)F	LRRK2 (Homo sapiens, UniProt Q5S007, G2019S)	9.1 nM
CCNc1nc(Nc2cn(C(C)(C)c3nnc[nH]3)nc2C)ncc1C(F)(F)F	LRRK2 (Homo sapiens, UniProt Q5S007, G2019S)	0.5 nM
CNc1nc(Nc2cnn(C3CCCC3O)c2C)ncc1C(F)(F)F (centres unmarked)	LRRK2 (Homo sapiens, UniProt Q5S007, G2019S)	6.3 nM
CCNc1nc(Nc2cn(CC(C)(C)O)nc2C2CC2)ncc1C(F)(F)F	LRRK2 (Homo sapiens, UniProt Q5S007, G2019S)	1.5 nM
CCNc1nc(Nc2cn(C(C)(C)c3nnc(C)[nH]3)nc2C)ncc1C(F)(F)F	LRRK2 (Homo sapiens, UniProt Q5S007, G2019S)	0.8 nM
CCNc1nc(Nc2cn(C(C)(C)c3ccnn3C)nc2C)ncc1C(F)(F)F	LRRK2 (Homo sapiens, UniProt Q5S007, G2019S)	0.3 nM
CNc1nc(Nc2cn(-c3ccccn3)nc2C)ncc1C(F)(F)F	LRRK2 (Homo sapiens, UniProt Q5S007, G2019S)	6.7 nM
CNc1nc(Nc2cnn(C3CCN(CCOC)CC3)c2C)ncc1C(F)(F)F	LRRK2 (Homo sapiens, UniProt Q5S007, G2019S)	6 nM
CNc1nc(Nc2cnn(C(C)(C)c3cnn(C)c3)c2C)ncc1C(F)(F)F	LRRK2 (Homo sapiens, UniProt Q5S007, G2019S)	6.1 nM
CNc1nc(Nc2cn(CC3(C)COC3)nc2C)ncc1C(F)(F)F	LRRK2 (Homo sapiens, UniProt Q5S007, G2019S)	7.2 nM
CNc1nc(Nc2cn(C[C@@H](C)OC)nc2C)ncc1C(F)(F)F	LRRK2 (Homo sapiens, UniProt Q5S007, G2019S)	17 nM
CNc1nc(Nc2cn(CCF)nc2C)ncc1C(F)(F)F	LRRK2 (Homo sapiens, UniProt Q5S007, G2019S)	1.1 nM
CCNc1nc(Nc2cn(C3CCN(CC4OCCO4)C3)nc2C)ncc1C(F)(F)F (centres unmarked)	LRRK2 (Homo sapiens, UniProt Q5S007, G2019S)	4.9 nM
CNc1nc(Nc2cn(CC(C)(C)C#N)nc2Cl)ncc1C(F)(F)F	LRRK2 (Homo sapiens, UniProt Q5S007, G2019S)	8.2 nM
CNc1nc(Nc2cn(C3CC(C)OC(C)C3)nc2C)ncc1C(F)(F)F (centres unmarked)	LRRK2 (Homo sapiens, UniProt Q5S007, G2019S)	84.6 nM
CNc1nc(Nc2cnn(C[C@H](C)OC)c2C)ncc1C(F)(F)F	LRRK2 (Homo sapiens, UniProt Q5S007, G2019S)	18.8 nM
CNc1nc(Nc2cnn(CC(F)(F)F)c2C)ncc1Br	LRRK2 (Homo sapiens, UniProt Q5S007, G2019S)	1.1 nM
CNc1nc(Nc2cn(S(C)(=O)=O)nc2C)ncc1Cl	LRRK2 (Homo sapiens, UniProt Q5S007, G2019S)	8.8 nM
CCNc1nc(Nc2cn(CC(C)(C)O)nc2C(C)C)ncc1C(F)(F)F	LRRK2 (Homo sapiens, UniProt Q5S007, G2019S)	6.1 nM
CCNc1nc(Nc2cn(CCOC)nc2C)ncc1C(F)(F)F	LRRK2 (Homo sapiens, UniProt Q5S007, G2019S)	1.1 nM
CCNc1nc(Nc2cnn(C)c2C)ncc1C(F)(F)F	LRRK2 (Homo sapiens, UniProt Q5S007, G2019S)	1.3 nM
CNc1nc(Nc2cn(C3CCN(C(=O)C4CC4)CC3)nc2C)ncc1C(F)(F)F	LRRK2 (Homo sapiens, UniProt Q5S007, G2019S)	9.3 nM
CNc1nc(Nc2cn(CC(C)(C)O)nc2C)ncc1C(F)(F)F	LRRK2 (Homo sapiens, UniProt Q5S007, G2019S)	12.2 nM
CNc1nc(Nc2cnn(C(F)F)c2C)ncc1Br	LRRK2 (Homo sapiens, UniProt Q5S007, G2019S)	0.7 nM
CCNc1nc(Nc2cnn(C3CCOCC3)c2C)ncc1C(F)(F)F	LRRK2 (Homo sapiens, UniProt Q5S007, G2019S)	0.3 nM
CNc1nc(Nc2cnn(Cc3cccc(C)n3)c2C)ncc1C(F)(F)F	LRRK2 (Homo sapiens, UniProt Q5S007, G2019S)	1.5 nM
CNc1nc(Nc2cn(C3CCCC3O)nc2C)ncc1C(F)(F)F (centres unmarked)	LRRK2 (Homo sapiens, UniProt Q5S007, G2019S)	3.3 nM
